This collection of values is drawn from the Kinase Knowledgebase extract (Sharma et al. 2016).

Measured log10 IC50, listed per entry.
Target: UniProtKB P24941
Experiment: Enzyme Assay
All values: base-10 log of IC50 in µg/mL.

{"Compound": "CNCc1csc(C=NNc2ncnc3sc(C(C)C)cc23)n1", "log10 IC50": 0.18}
{"Compound": "CC(C)(C)c1cc2c(NN=Cc3nc(C4CCNC4)cs3)ncnc2s1 (stereo not given)", "log10 IC50": 0.26}

Next compound, log10 IC50 to be filled in.
// query log10 IC50 value for entry CNCc1csc(C=NNc2ncnc3sc(C(C)C(C)C)cc23)n1 (stereo not given)
-0.06

* * *

Target: CDK2 (human) (UniProt P24941)
Assay: Enzyme Assay
Measured log10 of IC50, listed per entry.
All values: base-10 log of IC50 in µg/mL.

{"Molecule": "CN(C)Cc1csc(C=NNc2ncnc3sc(C(C)(C)C)cc23)n1", "Assay Readout": "log10 of IC50", "Quantitative Readout": 0.15}
{"Molecule": "CC(C)(C)c1cc2c(NN=Cc3nc(C4CCNCC4)cs3)ncnc2s1", "Assay Readout": "log10 of IC50", "Quantitative Readout": 0.23}
{"Molecule": "CC(N)c1csc(C=NNc2ncnc3sc(C(C)(C)CF)cc23)n1 (configuration not stated)", "Assay Readout": "log10 of IC50", "Quantitative Readout": -0.17}
{"Molecule": "CNCc1csc(C=NNc2ncnc3sc(C4CCCCC4)cc23)n1", "Assay Readout": "log10 of IC50", "Quantitative Readout": -0.09}
{"Molecule": "CNCc1csc(C=NNc2ncnc3sc(C(C)(C)CF)cc23)n1", "Assay Readout": "log10 of IC50", "Quantitative Readout": 0.26}
{"Molecule": "CC(C)(C)c1cc2c(NN=Cc3nc4c(s3)CNC4)ncnc2s1", "Assay Readout": "log10 of IC50", "Quantitative Readout": -0.70}
{"Molecule": "CC(C)(C)c1cc2c(NN=Cc3nc(CN)cs3)ncnc2s1", "Assay Readout": "log10 of IC50", "Quantitative Readout": -0.42}
{"Molecule": "CC(C)(C)c1cc2c(NN=Cc3cncs3)ncnc2s1", "Assay Readout": "log10 of IC50", "Quantitative Readout": -1.23}

Look up log10 of IC50 with CDK2 (human) (UniProt P24941) for this molecule: CNC(C)c1csc(C=NNc2ncnc3sc(C(C)(C)C)cc23)n1 (configuration not stated)
0.04

Look up log10 of IC50 with CDK2 (human) (UniProt P24941) for this molecule: CCC(N)c1csc(C=NNc2ncnc3sc(C(C)(C)C)cc23)n1 (configuration not stated)
0.15

Look up log10 of IC50 with CDK2 (human) (UniProt P24941) for this molecule: "CC(C)(C)c1cc2c(NN=Cc3nccs3)ncnc2s1"
-0.70

Look up log10 of IC50 with CDK2 (human) (UniProt P24941) for this molecule: "CC(C)(C)c1cc2c(NN=Cc3cscn3)ncnc2s1"
0.34
